Tested on: Mycobacterium tuberculosis
Test: Antimycobacterial activity against Mycobacterium tuberculosis H37Rv expressing pFCA-luxAB after 10 days by luminescence-based low-oxygen recovery assay
Assay type: functional
Conditions: 240 h
QUANTITY_MEASURED: MIC (µM)
One number for each entry, in µM.

O=[N+]([O-])c1cn2c(n1)OC[C@@H](OCc1ccn(-c3ccc(F)cc3)n1)C2 7.2
O=[N+]([O-])c1cn2c(n1)OC[C@@H](OCc1nnn(-c3ccc(C(F)(F)F)cc3)n1)C2 1.4
O=[N+]([O-])c1cn2c(n1)OC[C@@H](OCc1cccc(-c3ccc(OC(F)(F)F)cc3)c1)C2 2.2
COc1ccc(-c2ccc(CO[C@@H]3COc4nc([N+](=O)[O-])cn4C3)s2)cc1F 1
COc1ccc(-n2cc(CO[C@@H]3COc4nc([N+](=O)[O-])cn4C3)nn2)cn1 12
N#Cc1ccc(-c2nc(CO[C@@H]3COc4nc([N+](=O)[O-])cn4C3)cs2)cc1 3.2
O=[N+]([O-])c1cn2c(n1)OC[C@@H](OCc1cccc(-c3ccc(F)cc3)c1)C2 3.8
O=[N+]([O-])c1cn2c(n1)OC[C@@H](OCc1nnn(-c3ccc(OC(F)(F)F)cc3)n1)C2 1.3

Now let's try a different one.
Q) Returns the measured MIC for the input molecule. Input: O=[N+]([O-])c1cn2c(n1)OC[C@@H](OCc1cnn(-c3ccccc3)n1)C2
A) 2.2

====

System: Mycobacterium tuberculosis
Assay: Antimycobacterial activity against Mycobacterium tuberculosis H37Rv expressing pFCA-luxAB after 10 days by luminescence-based low-oxygen recovery assay
Format: functional
Details: 240 h
QUANTITY_MEASURED: MIC (µM)
Numbers only, in µM.

O=[N+]([O-])c1cn2c(n1)OC[C@@H](OCc1ccn(-c3ccc(C(F)(F)F)cc3)n1)C2 1
O=[N+]([O-])c1cn2c(n1)OC[C@@H](OCc1cnn(-c3ccc(F)cc3)n1)C2 1.4

Q) Any idea what its MIC is? The molecule is O=[N+]([O-])c1cn2c(n1)OC[C@@H](OCc1ccc(-c3ccc(F)cc3)s1)C2
A) 1.9

====

Test system: Mycobacterium tuberculosis
Assay: Antimycobacterial activity against Mycobacterium tuberculosis H37Rv expressing pFCA-luxAB after 10 days by luminescence-based low-oxygen recovery assay
Type: functional
Conditions: 240 h
// NB: equality with 2 µM counts as false (0); only MIC strictly below is true (1)

O=[N+]([O-])c1cn2c(n1)OC[C@@H](OCc1ccc(-c3cc(C(F)(F)F)ccn3)s1)C2 true (1)
N#Cc1ccc(-c2cc(CO[C@@H]3COc4nc([N+](=O)[O-])cn4C3)on2)cc1 false (0)
O=[N+]([O-])c1cn2c(n1)OC[C@@H](OCc1ccn(-c3ccc(OC(F)(F)F)cc3)n1)C2 true (1)
O=[N+]([O-])c1cn2c(n1)OC[C@@H](OCc1cn(-c3ccc(F)cc3)nn1)C2 false (0)
COc1ccc(-c2ncc(CO[C@@H]3COc4nc([N+](=O)[O-])cn4C3)n2C)cc1F false (0)

Q) Bench note: check whether N#Cc1ccc(-c2cccc(CO[C@@H]3COc4nc([N+](=O)[O-])cn4C3)c2)cc1 shows MIC below 2 µM
A) false (0)

Q) How about O=[N+]([O-])c1cn2c(n1)OC[C@@H](OCc1cnn(-c3ccc(OC(F)(F)F)cc3)c1)C2 ?
A) true (1)

Q) What do you have for Cn1c(CO[C@@H]2COc3nc([N+](=O)[O-])cn3C2)cnc1-c1ccc(F)cc1 ?
A) false (0)

Q) Proceed to O=[N+]([O-])c1cn2c(n1)OC[C@@H](OCc1cn(-c3ccc(C(F)(F)F)cc3)nn1)C2
A) false (0)

Q) Same for O=[N+]([O-])c1cn2c(n1)OC[C@@H](OCc1nnn(-c3ccccc3)n1)C2
A) false (0)

Q) What would you report for O=[N+]([O-])c1cn2c(n1)OC[C@@H](OCc1cc(-c3ccc(OC(F)(F)F)cc3)no1)C2 ?
A) true (1)

Just for reference, ChEMBL document CHEMBL1156790 is where these values come from.
